Parameter: MIC. Scope: all listed entries.
Tested on: Escherichia coli ATCC 25922
Experiment: ≥ marks a high value that may be exact or a test limit, other limits are often not marked, values filed in µg/mL are converted to µM

[
  {
    "chemicalString": "CC[C@H](C)[C@H](NC(=O)[C@@H](NC(=O)[C@H](CO)NC(=O)[C@@H]1CCCN1C(=O)[C@@H](NC(=O)[C@H](CC(C)C)NC(=O)[C@H](CCCCN)NC(=O)[C@H](Cc1ccccc1)NC(=O)[C@H](CC(C)C)NC(=O)CNC(=O)CNC(=O)[C@H](CC(C)C)NC(=O)[C@@H](N)Cc1ccccc1)C(C)C)C(C)C)C(=O)N[C@H]1CSSC[C@@H](C(=O)O)NC(=O)[C@H](CCCCN)NC(=O)[C@H](CCCCN)NC(=O)[C@H]([C@@H](C)O)NC(=O)[C@H](C(C)C)NC(=O)[C@H](C)NC1=O",
    "testedSystem": "Escherichia coli ATCC 25922",
    "MIC": "12.5 µM"
  },
  {
    "chemicalString": "CC(C)[C@H](N)C(=O)N[C@@H](CCCCN)C(=O)N[C@@H](CCCN=C(N)N)C(=O)N[C@@H](Cc1ccccc1)C(=O)N[C@@H](CCCCN)C(=O)N[C@@H](CCCCN)C(=O)N[C@@H](Cc1ccccc1)C(=O)N[C@@H](Cc1ccccc1)C(=O)N[C@@H](CCCN=C(N)N)C(=O)N[C@@H](CCCCN)C(=O)N[C@@H](Cc1ccccc1)C(=O)N[C@@H](CCCCN)C(=O)N[C@@H](CCCCN)C(=O)N[C@@H](Cc1ccccc1)C(=O)N[C@H](C(N)=O)C(C)C",
    "testedSystem": "Escherichia coli ATCC 25922",
    "MIC": "4.6 µM"
  }
]
